Tested on: HCV Replicon
MEASUREMENT_DESCRIPTION: HCV Replicon inhibition
Type: cell-based
CONDITION_INFO: Hepatitis C virus
For each of the molecules below, state its EC50.

Noted for CC(C)CCn1c(=O)c(C2=NS(=O)(=O)c3cc(NS(C)(=O)=O)ccc3N2)c(O)n2nccc12 [Compound 229] : its EC50 reads < 100 nM

Noted for CC(C)CCn1cc(C2=NS(=O)(=O)c3cc(NS(C)(=O)=O)ccc3N2)c2cccc(Cl)c21 [Compound 208] : its EC50 reads > 50000 nM

Noted for CS(=O)(=O)Nc1ccc2c(c1)S(=O)(=O)N=C(c1c(O)n3ccccc3c(Cc3ccc(F)cc3)c1=O)N2 [Compound 228] : its EC50 reads < 100 nM

Noted for CS(=O)(=O)Nc1ccc2c(c1)S(=O)(=O)N=C(c1c(O)n3ccccc3c(Cc3ccccc3)c1=O)N2 [Compound 238] : its EC50 reads < 100 nM

Sourced from patent US20090257979A1
